# pIC50 per record follows
# Test system: Trypanosoma cruzi
# assay_info: Antiparasitic activity against Trypanosoma cruzi 320I04 intracellular amastigotes infected in african green monkey Vero cells after 72 hrs
# Format: functional, organism-based
# details: 320I04, Vero
pIC50: −log10 of the molar value.

Would you please look over these solved cases?
In [3]: df
Out[3]:
                                test_smiles        test_target  result
0  O=[N+]([O-])c1ccccc1[C@@H]1C[C@@H]2Cc3ccc4ccccc4c3N1O2  Trypanosoma cruzi  < 4.00
1  Clc1ccccc1[C@@H]1C[C@@H]2Cc3ccc4ccccc4c3N1O2  Trypanosoma cruzi  < 4.00

# input for lookup
Return reported pIC50; argument: `Clc1ccc([C@@H]2C[C@@H]3Cc4ccc5ccccc5c4N2O3)c(Cl)c1` < 3.60

* * *

# assay_info: Cytotoxicity against african green monkey Vero cells after 72 hrs by MTT assay
# Assay type: cell-based
# details: chlorocebus sabaeus
Flag rule - CC50 at 72 h less than 100 µM flags t; the remaining entries get f.

Examples from the recorded data:
In [3]: df
Out[3]:
                                   molecule  classification
0  O[C@@H]1Cc2ccc3ccccc3c2N[C@H](c2ccccc2)C1               f
1  COc1cccc([C@@H]2C[C@@H]3Cc4ccc5ccccc5c4N2O3)c1               f
2  Brc1ccc([C@@H]2C[C@@H]3Cc4ccc5ccccc5c4N2O3)cc1               f

Lab log: compare recorded CC50 at 72 h with 100 µM; is it strictly lower for `O=[N+]([O-])c1ccccc1[C@@H]1C[C@@H]2Cc3ccc4ccccc4c3N1O2` ? t

Quick check: does `O[C@@H]1Cc2ccc3ccccc3c2N[C@H](c2ccccc2Cl)C1` have CC50 at 72 h under 100 µM? t

hey, is CC50 at 72 h for CC1CS(=O)(=O)CCN1/N=C/c1ccc([N+](=O)[O-])o1 (configuration not stated) lower than 100 µM or not? f

Please check: CC50 at 72 h for `c1ccc([C@@H]2C[C@@H]3Cc4ccc5ccccc5c4N2O3)cc1` , strictly under 100 µM or not? t

* * *

# assay_info: Cytotoxicity against african green monkey Vero cells after 72 hrs by MTT assay
# Format: cell-based
# details: chlorocebus sabaeus
CC50 at 72 h overview

Completed entries (count: 3):
>>> df
                                test_smiles    result
0  Cc1cccc([C@@H]2C[C@@H]3Cc4ccc5ccccc5c4N2O3)c1  > 300 µM
1  Fc1ccc([C@@H]2C[C@@H]3Cc4ccc5ccccc5c4N2O3)cc1  > 300 µM
2  Clc1cccc([C@@H]2C[C@@H]3Cc4ccc5ccccc5c4N2O3)c1  > 300 µM

With those in mind, consider the next compound.
Fill blank: measured CC50 at 72 h of the compound `Brc1cccc([C@@H]2C[C@@H]3Cc4ccc5ccccc5c4N2O3)c1` is ____. > 250 µM

* * *

# assay_info: Cytotoxicity against human THP1 cells after 72 hrs by MTT assay
# Format: cell-based
# details: THP-1 cells
value_type: CC50 at 72 h (µM)
Give just the number in µM; leave the unit off.

Examples with their reported CC50 at 72 h follow.
>>> print(df.to_string())
                                test_smiles  result
0  O[C@@H]1Cc2ccc3ccccc3c2N[C@H](c2cccc(Br)c2)C1    41.7
1  O[C@@H]1Cc2ccc3ccccc3c2N[C@H](c2ccc(F)cc2)C1    81.9
2  O[C@@H]1Cc2ccc3ccccc3c2N[C@H](c2cccc(Cl)c2)C1    43.2

Recorded CC50 at 72 h for `O[C@@H]1Cc2ccc3ccccc3c2N[C@H](c2ccc(Br)cc2)C1` , please? 79

Numbers sourced from ChEMBL document CHEMBL1154008.
